Molecular target: FGFR2 recombinant protein (Homo sapiens, UniProt P21802)
Sequence (P21802 22-821): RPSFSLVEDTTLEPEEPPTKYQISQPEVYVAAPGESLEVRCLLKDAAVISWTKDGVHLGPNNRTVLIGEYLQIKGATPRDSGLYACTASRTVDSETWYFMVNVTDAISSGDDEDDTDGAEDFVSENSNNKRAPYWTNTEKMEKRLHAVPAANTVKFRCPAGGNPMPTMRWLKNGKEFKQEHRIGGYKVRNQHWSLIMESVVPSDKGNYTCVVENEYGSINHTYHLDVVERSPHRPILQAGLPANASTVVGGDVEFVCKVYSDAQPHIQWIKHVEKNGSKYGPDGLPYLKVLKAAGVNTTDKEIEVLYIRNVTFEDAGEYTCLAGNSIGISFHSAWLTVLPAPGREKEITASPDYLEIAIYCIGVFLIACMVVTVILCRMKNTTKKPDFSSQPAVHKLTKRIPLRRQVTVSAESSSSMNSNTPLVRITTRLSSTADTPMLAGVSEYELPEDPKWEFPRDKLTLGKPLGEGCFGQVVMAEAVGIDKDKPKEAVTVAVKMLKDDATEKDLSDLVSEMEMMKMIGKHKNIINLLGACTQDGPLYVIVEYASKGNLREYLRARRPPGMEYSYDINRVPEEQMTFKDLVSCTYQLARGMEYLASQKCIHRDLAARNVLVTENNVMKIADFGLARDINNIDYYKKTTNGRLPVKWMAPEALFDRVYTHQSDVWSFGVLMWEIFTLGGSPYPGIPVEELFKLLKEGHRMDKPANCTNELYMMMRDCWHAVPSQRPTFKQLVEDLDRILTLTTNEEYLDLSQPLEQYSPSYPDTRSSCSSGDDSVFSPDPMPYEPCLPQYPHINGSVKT
Assay: FGFR2 kinase inhibitory activity (cell free kinase assay, Upstate)
Settings: poly(Glu, Tyr)4:1 substrate, [γ-33P]-ATP, 40 minutes at room temperature
pIC50: −log10 of the molar value.
measured-attribute: pIC50

In: Endpoint output: pIC50 of `COc1cc2nccc(Oc3ccc(NC(=O)NC4CC4)c(Cl)c3)c2cc1C(N)=O` . Value?
Out: > 8.00

---

System: KATO-III
Assay: Cell proliferation, Cell Counting Kit-8
Format: cell-based
Details: Homo sapiens, 72 h, 1% FBS, three days, read-out: inhibition of cell proliferation IC50
measured-attribute: pIC50
The read-out pIC50 is expressed as -log10 of concentration in moles per litre.

In: Notebook: pull reported pIC50 for KATO-III, entry `COc1cc2nccc(Oc3ccc(NC(=O)NC4CC4)c(Cl)c3)c2cc1C(N)=O`
Out: 6.85
